Would you mind telling me the reported Mean % WT Binding of each entry?
# TARGET_DESC: human CD33 E357A (human, UniProt P20138 18-364)
# Sequence (P20138 18-364 E357A limits assumed): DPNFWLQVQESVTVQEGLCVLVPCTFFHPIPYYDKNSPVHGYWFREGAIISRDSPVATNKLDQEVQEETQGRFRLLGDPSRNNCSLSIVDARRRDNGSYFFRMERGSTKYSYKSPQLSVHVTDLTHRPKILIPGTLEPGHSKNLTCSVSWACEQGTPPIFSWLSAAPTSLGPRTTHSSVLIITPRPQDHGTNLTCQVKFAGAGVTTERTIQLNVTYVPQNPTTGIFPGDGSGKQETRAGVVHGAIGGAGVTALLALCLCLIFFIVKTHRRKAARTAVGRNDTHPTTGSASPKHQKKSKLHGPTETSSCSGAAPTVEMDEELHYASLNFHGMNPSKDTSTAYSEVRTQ
# TEST_SUMMARY: flow cytometry, alanine scan

Request the reported Mean % WT Binding associated with Refmab #1 (antibody, V domains shown, The alanine scan used IgG or Fab; also called hP67.6) VH: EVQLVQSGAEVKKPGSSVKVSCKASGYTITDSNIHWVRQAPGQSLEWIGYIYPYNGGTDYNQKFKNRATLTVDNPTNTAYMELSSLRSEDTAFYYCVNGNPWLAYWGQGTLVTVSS VL: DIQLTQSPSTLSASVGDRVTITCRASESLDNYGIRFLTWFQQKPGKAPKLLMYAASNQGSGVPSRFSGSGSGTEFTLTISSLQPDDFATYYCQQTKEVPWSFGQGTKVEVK
98.7 % of WT

Need Mean % WT Binding of Refmab #2 (antibody, V domains shown, The alanine scan used IgG or Fab) VH: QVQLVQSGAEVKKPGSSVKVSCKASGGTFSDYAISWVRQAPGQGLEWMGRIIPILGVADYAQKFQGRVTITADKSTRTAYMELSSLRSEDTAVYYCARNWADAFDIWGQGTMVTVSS VL: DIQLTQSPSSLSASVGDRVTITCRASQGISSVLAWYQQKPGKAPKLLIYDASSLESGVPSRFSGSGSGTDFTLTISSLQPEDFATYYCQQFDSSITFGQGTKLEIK , thanks.
104 % of WT

Dear colleague, I am looking for the recorded Mean % WT Binding of the following binder: Refmab #4 (antibody, V domains shown, The alanine scan used IgG or Fab) VH: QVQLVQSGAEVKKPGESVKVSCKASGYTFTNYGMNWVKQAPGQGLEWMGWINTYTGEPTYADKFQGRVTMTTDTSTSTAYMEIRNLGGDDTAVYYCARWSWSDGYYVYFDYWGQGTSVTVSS VL: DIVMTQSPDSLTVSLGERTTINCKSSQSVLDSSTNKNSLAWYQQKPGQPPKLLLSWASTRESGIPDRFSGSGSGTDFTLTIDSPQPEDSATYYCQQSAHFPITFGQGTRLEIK
110 % of WT
